measurementNotes: Chemical stability in 1% NaOH in MeOH (HPLC)
Type: physicochemical
conditionSet: 8 h
Here the recorded concentration of compound remaining is given for each entry.
Reply with just the number (in %).

{"molecule": "CCOc1ccc(C2COc3c(ccc4c3CCC(C)(C)O4)C2)c(O)c1 (stereo not shown)", "number": 100}
{"molecule": "CC1(C)C=Cc2c(ccc3c2OC[C@@H](c2ccc(O)cc2O)C3)O1 [Glabridin, glabridin, reference compound]", "number": 71}
{"molecule": "CCc1ccc(C2COc3c(ccc4c3CCC(C)(C)O4)C2)c(O)c1 (stereo not shown)", "number": 101}

As a next step, examine the molecule that follows.
concentration of compound remaining lookup needed for CCCc1ccc(C2COc3c(ccc4c3CCC(C)(C)O4)C2)c(O)c1 (stereo not shown) , thanks.
101
